Please go through the items and note down their IC50.
Molecular target: RBDSARS-CoV (SARS-CoV S protein residues 318-510, C-terminal His-tag) (SARS-CoV, UniProt P59594 318-510)
Assay: ELISA

Illustrative cases are given below, each with its answer.
In: Look at this binder and give its reported IC50. 5p-34 (VHH) VHH: QVQLVESGGGLVQAGGSLRLSCTASGRTFSRYAAGWFRQAPGKEREFVAVIEWNGDSAYYTDSAKGRFTISRDNTKNTVYLQMNRLKPEDTAVYICAIGGNHYSPSKYYIADEYDYWGQGTQVTVSS
Out: < 10 nM

In: I am curious: what IC50 value has been reported for 4P-19 (VHH) VHH: HVQLVESGGGLVQAGGSLRLSCAASGRTVSSEFMGWFRQAPGKEREFVAAITWDGGSTYYTDSVKGRFTISRDNAKNTVYLQMNSLKPEDTAVYYCAADRSIFQSYYSAKYPNNYEYWGQGTQVTVSS ?
Out: 100 to 1000 nM

In: Reported IC50, binder 5p-6 (VHH) VHH: DVQLVESGGGLVQAGGSLRLSCAASGSTFSGNAIGWYRQAPGKQRELVATINAPGSTDYAESVKGRFTISRDNAKNTVFLQMNSLKPEDTAVYYCNVCKFLLSVLCHPGQDYWGQGTQVTVSS : ____
Out: 10 to 100 nM

// input: 8 binders below; output: IC50 for each
1. 5p-164 (VHH) VHH: DVQLVESGGGLVKTGDSLRLSCAVSGGTFGSYGMAWFRQAPGKEREIVASIGRTGRTTDYADSVKGRFSIARDNAKNTVYLQMNNLKPEDTAVYYCAARIFSLNYALIGRDTNINYWGQGTQVTVSS
2. 5p-125 (VHH) VHH: HVQLVESGGGLVQAGDSLRLSCAASRIFSTSAMGWFRQAPGKEREFVAAISWSGTNTHYADPVKGRFAISTDNAKNTVYLQMNSLKPEDTAVYYCAQGGWGLRQPIEVDYWGKGTQVTVSS
3. 5p-10 (VHH) VHH: QVQLVESGGGLVQAGGSLRLSCAASGRTFSSSAMGWFRQAPGKDREFVAAISPSSTNTGYTDSVKGRFTISRDNTKNTVDLQMNNLKPEDTAIYYCAADANSLRYGYSQNQGRYEYWGQGTQVTVSS
4. 4P-71 (VHH) VHH: HVQLVESGGGLVQAGGSLRLSCAASGRTFSRFAAGWFRQAPGKEREFVAVIDWNGGSAYYADSVKGRFTISRDNAKNTVYLQMNRLKPGDTAVYICAIGGNHYDPSRYYTADEYDYWGQGTQVTVSS
5. 5p-117 (VHH) VHH: DVQLVESGGGLVQAGESLRLSCAASGRTFRNFAAGWFRQTPGKDREFVAVIEYNGDSAYYADSVKGRFTISRDNAKNTVYLQMNRLKPGDTAVYICAIGGNHYDPSKYYIADEYDYWGQGTQVTVSS
6. 4P-84 (VHH) VHH: HVQLVESGGGLVQAGGSLRLSCAVSGRTVSTYGMGWFRQAPGKERDFVATITRSGGTTLYADSVKGRFTISRDNAKNTVYLQMNSLKIEDTAVYYCAVRRDSSFGYSRDSFEYDDWGQGTQVTVSS
7. 5p-118 (VHH, class II(B) psNb) VHH: QVQLVESGGGLVQAGESLRLSCAASKPTFRNFAAGWFRQTPGKDREFVAVIEYDGDSAYYADSVKGRFTISRDNAKNTVYLQMNRLKPGDTAVYICAIGGNHYDPSKYYTADEYDYWGQGTQVTVSS
8. 4P-76 (VHH) VHH: EVQLVESGGGLVQAGDSLRLSCAASERTGINYAMGWFRQAPGKERDFVAAIGWNGSITKYAESVKGRFTLSRDDAMNTVSLQMNSLKPEDTAVYYCAARIGSIANLQYREYEFAYWGQGTQVTVSS

Out:
["10 to 100 nM", "10 to 100 nM", "10 to 100 nM", "10 to 100 nM", "< 10 nM", "< 10 nM", "< 10 nM", "1000 to 8000 nM"]
